test system: Erythrocyte; test: Haemolytic activity in human erythrocytes assessed as lowest concentration causing 5% hemolysis after 1 hr; type: ADME, cell-based
Where a SMILES comes first, the peptide text is derived from it.
outcomeMeasure: MHC

Worked examples follow.
| compound | MHC |
| --- | --- |
| CC(C)C[C@H](NC(=O)[C@H](CCCNC(=N)N)NC(=O)[C@H](CCCCN)NC(=O)[C@H](Cc1c[nH]c2ccccc12)NC(=O)[C@@H](NC(=O)[C@H](CCCCN)NC(=O)[C@H](CCCCN)NC(=O)[C@H](Cc1c[nH]c2ccccc12)NC(=O)[C@H](CC(C)C)NC(=O)[C@H](CCCNC(=N)N)NC(=O)[C@@H](N)CCCNC(=N)N)[C@@H](C)O)C(=O)N[C@@H](Cc1c[nH]c2ccccc12)C(N)=O (H-RRLWKKTWKRLW-NH2) | > 128 µM |
| CC(C)C[C@H](NC(=O)[C@H](CCCNC(=N)N)NC(=O)[C@H](Cc1c[nH]c2ccccc12)NC(=O)[C@H](CCCNC(=N)N)NC(=O)[C@@H](NC(=O)[C@H](Cc1c[nH]c2ccccc12)NC(=O)[C@H](Cc1c[nH]c2ccccc12)NC(=O)[C@H](CCCNC(=N)N)NC(=O)[C@H](CC(C)C)NC(=O)[C@H](Cc1c[nH]c2ccccc12)NC(=O)[C@@H](N)CCCNC(=N)N)[C@@H](C)O)C(=O)N[C@@H](CCCCN)C(N)=O (H-RWLRWWTRWRLK-NH2) | 128 µM |
| CC(C)C[C@H](NC(=O)[C@H](CCCNC(=N)N)NC(=O)[C@H](CCCCN)NC(=O)[C@H](CCCNC(=N)N)NC(=O)[C@@H](NC(=O)[C@H](Cc1c[nH]c2ccccc12)NC(=O)[C@H](CCCCN)NC(=O)[C@H](CCCNC(=N)N)NC(=O)[C@H](CC(C)C)NC(=O)[C@H](Cc1c[nH]c2ccccc12)NC(=O)[C@@H](N)CCCNC(=N)N)[C@@H](C)O)C(=O)N[C@@H](CCCCN)C(N)=O (H-RWLRKWTRKRLK-NH2) | > 128 µM |
| N=C(N)NCCC[C@H](NC(=O)[C@H](Cc1ccccc1)NC(=O)[C@H](CCCNC(=N)N)NC(=O)[C@H](Cc1c[nH]c2ccccc12)NC(=O)[C@H](CCCNC(=N)N)NC(=O)[C@H](Cc1ccccc1)NC(=O)[C@H](CCCNC(=N)N)NC(=O)[C@H](Cc1c[nH]c2ccccc12)NC(=O)[C@H](CCCNC(=N)N)NC(=O)[C@H](Cc1ccccc1)NC(=O)[C@H](CCCNC(=N)N)NC(=O)[C@@H](N)Cc1c[nH]c2ccccc12)C(N)=O (H-WRFRWRFRWRFR-NH2) | 64 µM |
| CC(C)C[C@H](NC(=O)[C@H](CCCNC(=N)N)NC(=O)[C@H](CCCCN)NC(=O)[C@H](Cc1c[nH]c2ccccc12)NC(=O)[C@@H](NC(=O)[C@H](CCCCN)NC(=O)[C@H](CCCCN)NC(=O)[C@H](CCCNC(=N)N)NC(=O)[C@H](CC(C)C)NC(=O)[C@H](CCCNC(=N)N)NC(=O)[C@@H](N)CCCNC(=N)N)[C@@H](C)O)C(=O)N[C@@H](Cc1c[nH]c2ccccc12)C(N)=O (H-RRLRKKTWKRLW-NH2) | > 128 µM |
| CC(C)[C@H](NC(=O)[C@H](CCCNC(=N)N)NC(=O)[C@H](Cc1c[nH]c2ccccc12)NC(=O)[C@H](CCCNC(=N)N)NC(=O)[C@@H](NC(=O)[C@H](CCCCN)NC(=O)[C@H](Cc1c[nH]c2ccccc12)NC(=O)[C@H](CCCNC(=N)N)NC(=O)[C@@H](NC(=O)[C@H](CCCNC(=N)N)NC(=O)[C@@H](N)Cc1c[nH]c2ccccc12)C(C)C)[C@@H](C)O)C(=O)N[C@@H](CCCCN)C(N)=O (H-WRVRWKTRWRVK-NH2) | > 128 µM |

Looking up CC(C)C[C@H](NC(=O)[C@H](CCCNC(=N)N)NC(=O)[C@H](Cc1c[nH]c2ccccc12)NC(=O)[C@H](CCCNC(=N)N)NC(=O)[C@@H](NC(=O)[C@H](CCCCN)NC(=O)[C@H](Cc1c[nH]c2ccccc12)NC(=O)[C@H](CCCNC(=N)N)NC(=O)[C@H](CC(C)C)NC(=O)[C@H](CCCNC(=N)N)NC(=O)[C@@H](N)CCCNC(=N)N)[C@@H](C)O)C(=O)N[C@@H](CCCCN)C(N)=O (H-RRLRWKTRWRLK-NH2) , I found its MHC recorded as > 128 µM

====

test system: Acinetobacter baumannii; test: Antibacterial activity against Acinetobacter baumannii AB1901 clinical isolate incubated for 18 to 24 hrs by broth microdilution method; format: functional
Where a SMILES comes first, the peptide text is derived from it.
outcomeMeasure: MIC (µM)
The reply should contain only the number, in µM.

Just so you know, measured MIC for CC(C)[C@H](NC(=O)[C@H](CCCNC(=N)N)NC(=O)[C@H](Cc1c[nH]c2ccccc12)NC(=O)[C@H](CCCNC(=N)N)NC(=O)[C@@H](NC(=O)[C@H](CCCNC(=N)N)NC(=O)[C@H](Cc1c[nH]c2ccccc12)NC(=O)[C@H](CCCNC(=N)N)NC(=O)[C@@H](NC(=O)[C@H](CCCNC(=N)N)NC(=O)[C@@H](N)Cc1c[nH]c2ccccc12)C(C)C)C(C)C)C(=O)N[C@@H](CCCNC(=N)N)C(N)=O (H-WRVRWRVRWRVR-NH2) came out at 2

====

Measured MIC by item
test system: Pseudomonas aeruginosa; experiment: Antibacterial activity against Pseudomonas aeruginosa 25349 clinical isolate incubated for 18 to 24 hrs by broth microdilution method; assay type: functional
Where a SMILES comes first, the peptide text is derived from it.
# output: numeric value plus its unit

Worked set:
| compound | measuredResult |
| --- | --- |
| CC(C)C[C@H](NC(=O)[C@H](CCCNC(=N)N)NC(=O)[C@H](Cc1c[nH]c2ccccc12)NC(=O)[C@H](CCCNC(=N)N)NC(=O)[C@@H](NC(=O)[C@H](CCCNC(=N)N)NC(=O)[C@H](Cc1c[nH]c2ccccc12)NC(=O)[C@H](CCCNC(=N)N)NC(=O)[C@H](CC(C)C)NC(=O)[C@H](CCCNC(=N)N)NC(=O)[C@@H](N)Cc1c[nH]c2ccccc12)[C@@H](C)O)C(=O)N[C@@H](CCCNC(=N)N)C(N)=O (H-WRLRWRTRWRLR-NH2) | 16 µM |
| CC[C@H](C)[C@H](NC(=O)[C@H](CCCNC(=N)N)NC(=O)[C@H](Cc1c[nH]c2ccccc12)NC(=O)[C@H](CCCNC(=N)N)NC(=O)[C@@H](NC(=O)[C@H](CCCCN)NC(=O)[C@H](Cc1c[nH]c2ccccc12)NC(=O)[C@H](CCCNC(=N)N)NC(=O)[C@@H](NC(=O)[C@H](CCCNC(=N)N)NC(=O)[C@@H](N)Cc1c[nH]c2ccccc12)[C@@H](C)CC)[C@@H](C)O)C(=O)N[C@@H](CCCCN)C(N)=O (H-WRIRWKTRWRIK-NH2) | 8 µM |

The compound listed as `CN(C)c1ccc(O)c2c1C[C@H]1C[C@H]3[C@H](N(C)C)C(O)=C(C(N)=O)C(=O)[C@@]3(O)C(O)=C1C2=O` shows MIC equal to 8 µM

====

test system: Salmonella typhimurium; assay: Antibacterial activity against Salmonella enterica serovar typhimurium C77-31 incubated for 18 to 24 hrs by broth microdilution method; assay type: functional, Salmonella enterica subsp. enterica serovar Typhimurium
Where a SMILES comes first, the peptide text is derived from it.
MIC listing for selected compounds.
The response must be a number in µM with no trailing unit.

| compound | unit | MIC |
| --- | --- | --- |
| CC(C)C[C@H](NC(=O)[C@H](CCCNC(=N)N)NC(=O)[C@H](CC(C)C)NC(=O)[C@H](CCCNC(=N)N)NC(=O)[C@@H](NC(=O)[C@H](CCCCN)NC(=O)[C@H](CC(C)C)NC(=O)[C@H](CCCNC(=N)N)NC(=O)[C@H](CC(C)C)NC(=O)[C@H](CCCNC(=N)N)NC(=O)[C@@H](N)CC(C)C)[C@@H](C)O)C(=O)N[C@@H](CCCCN)C(N)=O (H-LRLRLKTRLRLK-NH2) | µM | 16 |
| CC(C)[C@H](NC(=O)[C@H](CCCNC(=N)N)NC(=O)[C@H](Cc1c[nH]c2ccccc12)NC(=O)[C@H](CCCNC(=N)N)NC(=O)[C@@H](NC(=O)[C@H](CCCCN)NC(=O)[C@H](Cc1c[nH]c2ccccc12)NC(=O)[C@H](CCCNC(=N)N)NC(=O)[C@@H](NC(=O)[C@H](CCCNC(=N)N)NC(=O)[C@@H](N)Cc1c[nH]c2ccccc12)C(C)C)C(C)C)C(=O)N[C@@H](CCCCN)C(N)=O (H-WRVRWKVRWRVK-NH2) | µM | 2 |
| CC(C)C[C@H](NC(=O)[C@H](CCCCN)NC(=O)[C@H](Cc1c[nH]c2ccccc12)NC(=O)[C@H](CCCCN)NC(=O)[C@H](CC(C)C)NC(=O)[C@H](CCCCN)NC(=O)[C@H](Cc1c[nH]c2ccccc12)NC(=O)[C@H](CCCCN)NC(=O)[C@H](CC(C)C)NC(=O)[C@H](CCCCN)NC(=O)[C@@H](N)Cc1c[nH]c2ccccc12)C(=O)N[C@@H](CCCCN)C(N)=O (H-WKLKWKLKWKLK-NH2) | µM | 2 |

Value of measured MIC for the entry CC(C)C[C@H](NC(=O)[C@H](CCCNC(=N)N)NC(=O)[C@H](Cc1c[nH]c2ccccc12)NC(=O)[C@H](CCCNC(=N)N)NC(=O)[C@@H](NC(=O)[C@H](Cc1c[nH]c2ccccc12)NC(=O)[C@H](Cc1c[nH]c2ccccc12)NC(=O)[C@H](CCCNC(=N)N)NC(=O)[C@H](CC(C)C)NC(=O)[C@H](CCCNC(=N)N)NC(=O)[C@@H](N)CCCNC(=N)N)[C@@H](C)O)C(=O)N[C@@H](CCCCN)C(N)=O (H-RRLRWWTRWRLK-NH2) : 8

MIC reading for CC(C)C[C@H](NC(=O)[C@H](Cc1c[nH]c2ccccc12)NC(=O)[C@H](CCCCN)NC(=O)[C@H](CCCNC(=N)N)NC(=O)[C@@H](NC(=O)[C@H](Cc1c[nH]c2ccccc12)NC(=O)[C@H](CCCCN)NC(=O)[C@H](CCCNC(=N)N)NC(=O)[C@H](CC(C)C)NC(=O)[C@H](Cc1c[nH]c2ccccc12)NC(=O)[C@@H](N)CCCNC(=N)N)[C@@H](C)O)C(=O)N[C@@H](CCCCN)C(N)=O (H-RWLRKWTRKWLK-NH2) : 16

Looking up `CCn1cc(C(=O)O)c(=O)c2cc(F)c(N3CCNCC3)cc21` , I found its MIC recorded as 0.25

From: ChEMBL document CHEMBL4311942
